Tested on: E. coli WP2-uvr A
Assay type: cell-based
Settings: UV-A irradiation time 10 seconds
Description: Mutagenic activity of 6-alkylangelicins on E. coli WP2-uvr A by irradiation with UV-A (a). (a) The test was performed at the furocoumarin concentration of 5 μg/m according to Venturini et al., Chem. Biol. Interactions, 30, 203, 1980.
measure: no of mutants per 10^6 survivors

* Cc1cc(=O)oc2c1cc(C)c1occ(C)c12 [6,4,4'-trimethylangelicin] | 0.84 mutants per 10^6 survivors
* Cc1cc2ccc(=O)oc2c2c(C)coc12 [6,4'-dimethylangelicin] | 0.96 mutants per 10^6 survivors
* Cc1cc2c(o1)c(C)cc1c(C)cc(=O)oc12 [6,4,5'-trimethylangelicin] | 0.62 mutants per 10^6 survivors
* COc1c2occc2cc2ccc(=O)oc12 [8-MOP, 8-methoxypsoralen, reference compound] | 0.4 mutants per 10^6 survivors
* Cc1cc(=O)oc2c1cc(C)c1occc12 [6,4-dimethylangelicin] | 0.24 mutants per 10^6 survivors

----------
// reported no of mutants per 10^6 survivors for each item listed
test system: E. coli WP2-uvr A; format: cell-based; details: UV-A irradiation time 20 seconds
measure: no of mutants per 10^6 survivors

• Cc1cc(=O)oc2c1cc(C)c1occ(C)c12 [6,4,4'-trimethylangelicin] = 1.18 mutants per 10^6 survivors
• Cc1cc2ccc(=O)oc2c2c(C)coc12 [6,4'-dimethylangelicin] = 1.76 mutants per 10^6 survivors
• COc1c2occc2cc2ccc(=O)oc12 [8-MOP, 8-methoxypsoralen, reference compound] = 1.15 mutants per 10^6 survivors
• Cc1cc(=O)oc2c1cc(C)c1occc12 [6,4-dimethylangelicin] = 0.7 mutants per 10^6 survivors
• Cc1cc2c(o1)c(C)cc1c(C)cc(=O)oc12 [6,4,5'-trimethylangelicin] = 0.91 mutants per 10^6 survivors

----------
assay: Acute toxicity (LD50) in mice; conditions: mouse, in vivo, po
measure: LD50

* Cc1cc2ccc(=O)oc2c2c(C)coc12 [6,4'-dimethylangelicin] | > 2000 mg/kg

----------
tested on: E. coli WP2-uvr A; format: cell-based; conditions: UV-A irradiation time 60 seconds
measure: no of mutants per 10^6 survivors

- COc1c2occc2cc2ccc(=O)oc12 [8-MOP, 8-methoxypsoralen, reference compound]: 3.1 mutants per 10^6 survivors
- Cc1cc(=O)oc2c1cc(C)c1occ(C)c12: 1.98 mutants per 10^6 survivors
- Cc1cc2c(o1)c(C)cc1c(C)cc(=O)oc12: 1.93 mutants per 10^6 survivors
- Cc1cc(=O)oc2c1cc(C)c1occc12: 1.83 mutants per 10^6 survivors
